Taken from the supplement of paper PMC3545927.

Consider the following sequences; for each one, report its furin cleavage Z-score.
System Tested: furin, P09958;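 note: purified furin at 1:10 enzyme:substrate in 50 mM HEPES pH 7.5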
Sequence (P09958 whole entry): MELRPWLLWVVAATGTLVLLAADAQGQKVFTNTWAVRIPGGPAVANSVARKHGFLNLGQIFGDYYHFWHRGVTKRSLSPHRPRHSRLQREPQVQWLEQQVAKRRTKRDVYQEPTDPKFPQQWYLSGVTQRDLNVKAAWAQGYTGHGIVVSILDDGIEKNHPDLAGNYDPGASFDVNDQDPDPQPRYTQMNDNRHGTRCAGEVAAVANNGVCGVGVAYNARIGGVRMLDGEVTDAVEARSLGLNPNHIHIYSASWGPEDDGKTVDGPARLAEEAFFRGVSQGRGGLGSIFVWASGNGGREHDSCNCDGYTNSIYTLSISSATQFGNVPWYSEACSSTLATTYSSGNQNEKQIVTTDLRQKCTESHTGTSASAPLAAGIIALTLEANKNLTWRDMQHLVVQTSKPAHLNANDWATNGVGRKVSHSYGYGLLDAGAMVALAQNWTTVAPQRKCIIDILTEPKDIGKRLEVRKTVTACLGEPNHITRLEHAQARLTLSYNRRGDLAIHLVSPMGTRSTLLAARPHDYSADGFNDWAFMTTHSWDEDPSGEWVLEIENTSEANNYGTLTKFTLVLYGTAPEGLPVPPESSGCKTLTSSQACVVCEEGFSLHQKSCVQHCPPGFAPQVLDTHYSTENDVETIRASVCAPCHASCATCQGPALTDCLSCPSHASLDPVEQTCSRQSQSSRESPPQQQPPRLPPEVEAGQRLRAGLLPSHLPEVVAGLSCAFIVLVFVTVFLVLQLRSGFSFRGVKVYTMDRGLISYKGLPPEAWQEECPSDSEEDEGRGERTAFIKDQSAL
Protocol Summary: furin cleavage Z-score vs untreated control; higher = more cleavage, active = 3.5 or more, inactive = 1 or less, 8 variable residues between constant flanks
Experimental Setup: 15 min
This is one part of the list. The true hit rate is not given.
Numbers only.

Example entries begin here.
CAVQIVSTAAAGNASASA [HC690]
-1.18
CASSNVSVAHAGNASASA [HC1554]
-0.374
CAKQGVSKRHAGNASASA [FS-261]
2.44
CASDGRGKRHAGNASASA [FS-1277]
6.45
CAEVIKGGRHAGNASASA [HC852]
-1.42
CALLRRGKRHAGNASASA [FS-51]
10.8

Kindly review the next sequence as well.
Value of measured furin cleavage Z-score for the entry CAERVVCCSMAGNASASA [HC2133] : 0.896
